# Assayed system: UniProtKB Q13255
# Sequence (Q13255 whole entry): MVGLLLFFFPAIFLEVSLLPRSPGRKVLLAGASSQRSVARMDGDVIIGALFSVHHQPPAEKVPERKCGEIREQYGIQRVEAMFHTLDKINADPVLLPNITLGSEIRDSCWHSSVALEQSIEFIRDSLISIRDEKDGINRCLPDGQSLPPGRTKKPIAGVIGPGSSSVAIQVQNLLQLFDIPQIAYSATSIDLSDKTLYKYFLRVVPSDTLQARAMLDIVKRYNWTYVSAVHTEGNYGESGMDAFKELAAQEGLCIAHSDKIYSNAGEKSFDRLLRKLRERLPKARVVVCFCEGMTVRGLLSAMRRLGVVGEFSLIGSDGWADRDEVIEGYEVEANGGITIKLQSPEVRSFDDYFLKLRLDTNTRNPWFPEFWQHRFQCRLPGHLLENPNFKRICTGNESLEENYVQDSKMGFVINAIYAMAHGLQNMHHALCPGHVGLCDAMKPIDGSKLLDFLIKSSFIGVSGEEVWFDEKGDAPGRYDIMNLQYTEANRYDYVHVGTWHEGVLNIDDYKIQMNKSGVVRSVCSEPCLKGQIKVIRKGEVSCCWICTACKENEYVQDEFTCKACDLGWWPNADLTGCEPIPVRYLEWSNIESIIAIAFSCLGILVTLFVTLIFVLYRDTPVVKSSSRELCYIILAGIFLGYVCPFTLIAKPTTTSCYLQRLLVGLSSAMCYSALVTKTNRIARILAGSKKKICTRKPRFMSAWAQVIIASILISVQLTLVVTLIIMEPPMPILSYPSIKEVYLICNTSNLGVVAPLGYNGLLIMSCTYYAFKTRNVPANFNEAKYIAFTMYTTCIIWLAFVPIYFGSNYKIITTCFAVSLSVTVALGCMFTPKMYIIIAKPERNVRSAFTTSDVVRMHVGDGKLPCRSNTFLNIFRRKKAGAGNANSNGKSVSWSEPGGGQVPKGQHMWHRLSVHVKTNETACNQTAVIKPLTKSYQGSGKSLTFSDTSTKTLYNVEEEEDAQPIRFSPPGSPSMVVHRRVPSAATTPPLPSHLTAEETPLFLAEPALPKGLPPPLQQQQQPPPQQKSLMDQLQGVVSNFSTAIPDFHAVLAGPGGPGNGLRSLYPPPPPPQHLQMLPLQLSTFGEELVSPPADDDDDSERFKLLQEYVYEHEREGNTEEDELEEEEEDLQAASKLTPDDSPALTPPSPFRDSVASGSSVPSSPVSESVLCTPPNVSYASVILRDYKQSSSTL
pKi: −log10 of the molar value.
Value kind: pKi

Consider the molecule `N[C@@H](CCP(=O)(O)O)C(=O)O` and give its measured pKi.
< 3.00

###

# Procedure text: Displacement of [3H]AMPA from AMPA receptor in rat brain membranes
# Format: cell membranes
Value kind: Ki

Examples with their reported Ki follow.
N[C@@H](CCP(=O)(O)O)C(=O)O | > 1000 µM
N[C@H](CC12CC(C(=O)O)(C1)C2)C(=O)O | > 300 µM

Field: next compound
Give the measured Ki of `N[C@@H](CC12CC(C(=O)O)(C1)C2)C(=O)O` .
> 300 µM

###

# Assayed system: Metabotropic glutamate receptor 2 (Homo sapiens, UniProt Q14416)
# Sequence (Q14416 whole entry): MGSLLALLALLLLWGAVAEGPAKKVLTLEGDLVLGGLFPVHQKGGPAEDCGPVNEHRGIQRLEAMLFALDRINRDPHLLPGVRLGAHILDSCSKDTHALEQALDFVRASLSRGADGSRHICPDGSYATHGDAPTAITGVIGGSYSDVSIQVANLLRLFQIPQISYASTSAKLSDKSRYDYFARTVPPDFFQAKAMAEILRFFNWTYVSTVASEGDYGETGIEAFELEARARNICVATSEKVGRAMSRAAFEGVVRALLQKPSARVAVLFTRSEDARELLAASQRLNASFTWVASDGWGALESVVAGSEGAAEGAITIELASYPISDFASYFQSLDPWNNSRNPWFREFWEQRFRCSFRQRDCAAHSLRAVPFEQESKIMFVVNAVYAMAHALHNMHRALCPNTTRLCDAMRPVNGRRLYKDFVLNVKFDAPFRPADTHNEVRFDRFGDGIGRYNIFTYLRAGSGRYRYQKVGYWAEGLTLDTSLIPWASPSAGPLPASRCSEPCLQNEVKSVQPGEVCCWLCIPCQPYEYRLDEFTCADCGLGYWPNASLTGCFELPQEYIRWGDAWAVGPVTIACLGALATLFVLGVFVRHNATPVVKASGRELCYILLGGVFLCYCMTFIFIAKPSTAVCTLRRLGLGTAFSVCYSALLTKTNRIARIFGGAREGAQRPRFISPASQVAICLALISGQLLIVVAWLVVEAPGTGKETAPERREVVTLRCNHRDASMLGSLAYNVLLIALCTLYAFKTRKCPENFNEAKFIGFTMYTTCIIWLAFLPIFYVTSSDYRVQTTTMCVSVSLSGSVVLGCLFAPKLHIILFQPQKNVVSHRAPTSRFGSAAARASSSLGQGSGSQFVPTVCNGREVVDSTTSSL
Value kind: Ki

Look up Ki: `N[C@@H](CCP(=O)(O)O)C(=O)O`
> 1 mM

###

# Assayed system: Metabotropic glutamate receptor 5 (Homo sapiens, UniProt P41594)
# Sequence (P41594 whole entry): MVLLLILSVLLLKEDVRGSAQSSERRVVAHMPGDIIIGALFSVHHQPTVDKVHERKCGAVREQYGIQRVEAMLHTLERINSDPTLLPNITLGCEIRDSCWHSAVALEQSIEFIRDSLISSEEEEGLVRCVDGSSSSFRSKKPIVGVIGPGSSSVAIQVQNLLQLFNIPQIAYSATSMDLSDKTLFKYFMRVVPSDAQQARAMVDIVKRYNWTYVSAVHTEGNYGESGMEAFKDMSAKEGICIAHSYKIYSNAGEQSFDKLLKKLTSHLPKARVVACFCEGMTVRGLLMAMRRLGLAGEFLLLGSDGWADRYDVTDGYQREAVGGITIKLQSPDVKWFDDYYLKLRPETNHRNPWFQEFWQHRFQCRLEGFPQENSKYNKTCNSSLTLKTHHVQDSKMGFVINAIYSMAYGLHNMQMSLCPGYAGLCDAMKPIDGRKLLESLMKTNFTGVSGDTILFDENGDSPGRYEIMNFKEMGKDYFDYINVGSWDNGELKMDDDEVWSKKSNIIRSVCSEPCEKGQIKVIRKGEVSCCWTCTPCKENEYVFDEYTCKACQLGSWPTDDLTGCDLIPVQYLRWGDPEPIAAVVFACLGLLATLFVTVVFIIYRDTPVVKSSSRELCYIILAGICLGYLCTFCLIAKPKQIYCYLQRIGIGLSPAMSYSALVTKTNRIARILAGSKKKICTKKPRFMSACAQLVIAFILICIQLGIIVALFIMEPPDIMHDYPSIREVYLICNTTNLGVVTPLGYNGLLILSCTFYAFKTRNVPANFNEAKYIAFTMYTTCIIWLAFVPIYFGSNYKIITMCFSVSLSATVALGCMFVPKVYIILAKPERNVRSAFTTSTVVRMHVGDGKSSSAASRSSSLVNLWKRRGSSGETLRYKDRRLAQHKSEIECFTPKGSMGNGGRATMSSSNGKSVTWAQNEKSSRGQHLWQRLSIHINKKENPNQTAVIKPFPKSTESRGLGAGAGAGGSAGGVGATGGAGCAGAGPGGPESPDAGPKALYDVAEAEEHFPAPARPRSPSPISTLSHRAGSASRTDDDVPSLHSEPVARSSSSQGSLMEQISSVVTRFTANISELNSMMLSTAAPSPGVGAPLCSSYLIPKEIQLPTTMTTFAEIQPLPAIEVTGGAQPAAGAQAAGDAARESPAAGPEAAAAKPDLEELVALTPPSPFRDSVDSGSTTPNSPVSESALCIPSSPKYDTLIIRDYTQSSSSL
Value kind: Ki (µM)
One number for each entry, in µM.

# lookup: Ki of `N[C@H](CC12CC(C(=O)O)(C1)C2)C(=O)O`
336

###

# Assayed system: Metabotropic glutamate receptor 4 (Homo sapiens, UniProt Q14833)
# Sequence (Q14833 whole entry): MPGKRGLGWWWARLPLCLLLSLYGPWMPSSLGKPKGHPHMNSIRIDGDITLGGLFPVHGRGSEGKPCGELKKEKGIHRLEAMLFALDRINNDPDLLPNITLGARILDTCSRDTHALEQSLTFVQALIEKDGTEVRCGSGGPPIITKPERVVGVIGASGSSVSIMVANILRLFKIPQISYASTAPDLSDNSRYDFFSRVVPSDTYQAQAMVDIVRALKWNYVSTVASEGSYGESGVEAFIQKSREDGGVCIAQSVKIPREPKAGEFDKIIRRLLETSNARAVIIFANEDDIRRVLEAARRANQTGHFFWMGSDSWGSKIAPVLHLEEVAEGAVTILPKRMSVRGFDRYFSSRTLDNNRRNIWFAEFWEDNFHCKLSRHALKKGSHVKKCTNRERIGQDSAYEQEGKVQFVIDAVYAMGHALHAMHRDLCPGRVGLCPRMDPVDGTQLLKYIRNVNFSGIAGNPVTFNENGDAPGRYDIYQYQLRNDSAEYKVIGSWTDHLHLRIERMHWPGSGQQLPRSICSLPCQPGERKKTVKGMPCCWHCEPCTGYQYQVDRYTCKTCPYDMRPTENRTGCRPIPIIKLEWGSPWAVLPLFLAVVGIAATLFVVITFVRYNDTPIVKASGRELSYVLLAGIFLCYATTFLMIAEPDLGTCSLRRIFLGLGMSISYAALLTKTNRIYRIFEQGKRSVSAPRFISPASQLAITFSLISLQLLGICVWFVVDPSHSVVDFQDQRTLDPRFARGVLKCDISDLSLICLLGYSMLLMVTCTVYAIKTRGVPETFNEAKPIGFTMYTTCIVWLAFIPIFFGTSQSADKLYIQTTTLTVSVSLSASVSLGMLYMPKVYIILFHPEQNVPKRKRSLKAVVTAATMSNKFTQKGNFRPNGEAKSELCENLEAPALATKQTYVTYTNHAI
Value kind: pKi
One number for each entry, as −log10 of the molar value.

# input compound: `N[C@@H](CCP(=O)(O)O)C(=O)O` ; wanted: its pKi
6.80

###

Could you please report measured Ki for the items listed next?
# Procedure text: Displacement of [3H]kainic acid from kainate receptor in rat brain membranes
# Type: cell membranes

These solved cases illustrate the format of a correct answer.
N[C@@H](CCP(=O)(O)O)C(=O)O | > 1000 µM
N[C@@H](CC12CC(C(=O)O)(C1)C2)C(=O)O | > 300 µM

// switching to the query molecule
Report Ki for `N[C@H](CC12CC(C(=O)O)(C1)C2)C(=O)O` please.
> 300 µM
